study.system: T1, human/cynomolgus monkey ROR1 protein (Acro Biosystems, Cat. No.: RO1-H522y) (human/cynomolgus monkey, UniProt Q01973 30-403)
T1 construct: Bought SPR analyte
T1 sequence (Q01973 30-403 limits assumed): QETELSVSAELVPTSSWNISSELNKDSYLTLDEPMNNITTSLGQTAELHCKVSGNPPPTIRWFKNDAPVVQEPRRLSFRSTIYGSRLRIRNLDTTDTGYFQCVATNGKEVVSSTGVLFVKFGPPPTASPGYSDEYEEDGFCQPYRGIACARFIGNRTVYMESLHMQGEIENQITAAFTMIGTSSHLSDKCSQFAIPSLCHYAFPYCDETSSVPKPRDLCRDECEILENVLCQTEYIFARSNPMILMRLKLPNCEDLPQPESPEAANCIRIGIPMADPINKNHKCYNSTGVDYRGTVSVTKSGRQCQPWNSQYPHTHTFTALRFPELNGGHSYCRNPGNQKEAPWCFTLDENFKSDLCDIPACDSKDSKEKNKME
assay: SPR (Biacore), antibody captured on anti-hIgG CM5 chip, ROR1 protein as analyte, method of Example 5
measure.name: pKd
Recall that pKd is obtained by taking minus log10 of the concentration measured in molar.

binder: hz29H5D8-2.1 (antibody, human IgG1, kappa, V domains shown, Humanized, human IgG1/kappa) VH: QVQLVQSGAEVKKPGSSVKVSCKASGYTFTNYGISWVRQAPGQGLEWMGEIYPRSVNTYYAQKFQGRVTITADKSTSTAYMELSSLRSEDTAVYYCARHYYGSSLDYWGQGTLVTVSS VL: DIQMTQSPSSLSASVGDRVTITCITSSDIEDDMNWYQQKPGKAPKLLIYEGNSLRPGVPSRFSSSGYGTDFTFTISSLQPEDIATYYCLQSDNIFTFGQGTKVEIKR
pKd: 9.23

Please give the measured pKd for this binder: hz29H5D8-3.2 (antibody, human IgG1, kappa, V domains shown, Humanized, human IgG1/kappa) VH: QVQLVQSGAEVKKPGSSVKVSCKASGYTFTNYGISWVRQAPGQGLEWMGEIYPRSVNTYYSAKFKGRVTITADKSTSTAYMELSSLRSEDTAVYYCARHYYGSSLDYWGQGTLVTVSS VL: DIQMTQSPSSLSASVGDRVTITCITSSDIEDDMNWYQQKPGKAPKLLISEGNSLRPGVPSRFSSSGYGTDFTFTISSLQPEDIATYYCLQSDNIFTFGQGTKVEIKR 9.71

Please give the measured pKd for this binder: hz29H5D8-3.1 (antibody, human IgG1, kappa, V domains shown, Humanized, human IgG1/kappa) VH: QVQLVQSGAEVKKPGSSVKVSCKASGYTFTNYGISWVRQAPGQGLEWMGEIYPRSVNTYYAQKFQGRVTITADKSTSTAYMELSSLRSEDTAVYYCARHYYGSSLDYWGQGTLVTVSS VL: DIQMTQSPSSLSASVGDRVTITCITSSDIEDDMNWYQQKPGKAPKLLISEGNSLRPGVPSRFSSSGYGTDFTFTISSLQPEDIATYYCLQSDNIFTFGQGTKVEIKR 9.95

Please give the measured pKd for this binder: hz135A2B10-1.2 (antibody, human IgG1, kappa, V domains shown, Humanized, human IgG1/kappa) VH: QVQLVESGGGLVQPGGSLRLSCAASGFAFSTYGMAWVRQAPGKGLEWVASIHKGGFSTYYPDNVKGRFTISRDNDKNSLYLQMNSLRAEDTAVYYCIRHDWDGAMDYWGQGTLVTVSS VL: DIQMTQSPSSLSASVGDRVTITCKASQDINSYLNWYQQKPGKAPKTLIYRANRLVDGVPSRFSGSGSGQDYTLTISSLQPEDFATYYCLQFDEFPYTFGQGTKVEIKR 9.24
